All values here come from paper PMC2911597.

- tested_on: TspO (tryptophan-rich sensory protein) (Cereibacter sphaeroides, UniProt Q9RFC8)
- Construct: C-terminal His6 tag, expressed in E. coli BL21(DE3), purified in DDM
- Sequence (Q9RFC8 whole entry): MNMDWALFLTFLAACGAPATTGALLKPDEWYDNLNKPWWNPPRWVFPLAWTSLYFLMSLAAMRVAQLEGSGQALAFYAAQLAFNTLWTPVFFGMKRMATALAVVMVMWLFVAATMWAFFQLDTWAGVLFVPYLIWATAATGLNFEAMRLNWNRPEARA
- test: intrinsic tryptophan fluorescence quenching titration, purified protein in DDM
- Type: binding
measured_quantity: pKd
Here pKd is given on a logarithmic scale as minus log10 of the concentration in mol/L.

**Query** What does the record list as pKd for `C=CC1=C(C)c2cc3[nH]c(cc4nc(cc5[nH]c(cc1n2)c(C)c5CCC(=O)O)C(CCC(=O)O)=C4C)c(C)c3C=C` ?
**Result** 5.07

**Query** What does the record list as pKd for `C=CC1=C(C)C2=Cc3c(C=C)c(C)c4[n]3[Fe]([Cl])[n]3c(c(C)c(CCC(=O)O)c3=CC3=NC(=C4)C(C)=C3CCC(=O)O)=CC1=N2` ?
**Result** 5.00

* * *

- tested_on: TspO (tryptophan-rich sensory protein) (Cereibacter sphaeroides)
- Construct: C-terminal His6 tag, expressed in E. coli BL21(DE3), purified in DDM
- test: intrinsic tryptophan fluorescence quenching titration, purified protein in DDM
- Format: binding
- settings: read-out: Kd
measured_quantity: pKd
Here pKd is given on a logarithmic scale as minus log10 of the concentration in mol/L.

**Query** // lookup pKd | system=TspO (tryptophan-rich sensory protein) (Cereibacter sphaeroides) | key= `CC1=C(CCC(=O)O)c2cc3[nH]c(cc4nc(cc5[nH]c(cc1n2)c(CCC(=O)O)c5C)C(C)=C4CCC(=O)O)c(CCC(=O)O)c3C`
**Result** 4.75
